Origin of the recorded values: patent EP1044978A2

experiment: Photochromic properties of lens samples (2 mm, compound in matrix I or II) exposed to UV radiation from a xenon lamp
Assay type: physicochemical
testContext: lens sample, Matrix I (homopolymer of DIACRYL 121)
valueType: λmax (the maximum absorption in the visible spectrum after UV irradiation) (nm)

INSERT INTO measurements (compound, reading) VALUES
  ('Cc1cc2c(cc1C)C(C)(C)C1(C=Nc3c(ccc4ccccc34)O1)N2C (centres unmarked) [Control II, reference compound]', 616),
  ('CN1c2ccccc2C(C)(C)C12C=Nc1c(c(C(=O)N3CCc4ccccc43)cc3ccccc13)O2 (centres unmarked)', 622),
  ('Cc1ccc(NC(=O)c2cc3ccccc3c3c2OC2(C=N3)N(C)c3ccccc3C2(C)C)cc1 (centres unmarked)', 634),
  ('CN1c2ccccc2C(C)(C)C12C=Nc1c(c(C(=O)N3CCCCC3)cc3ccccc13)O2 (centres unmarked)', 618),
  ('CN1c2ccccc2C(C)(C)C12C=Nc1c(ccc3ccccc13)O2 (centres unmarked) [Control I, reference compound]', 607);

---

experiment: Photochromic properties of lens samples (2 mm, compound in matrix I or II) exposed to UV radiation from a xenon lamp
Assay type: physicochemical
testContext: lens sample, Matrix II (50/50 D121 / PEGDMA 400 copolymer)
valueType: λmax (the maximum absorption in the visible spectrum after UV irradiation) (nm)

INSERT INTO results (compound, reading) VALUES
  ('CN1c2ccccc2C(C)(C)C12C=Nc1c(c(C(=O)N3CCc4ccccc43)cc3ccccc13)O2 (stereo not drawn) [Example 4]', 622),
  ('COc1ccc2c(c1)C(C)(C)C1(C=Nc3c(c(C(=O)N4CCCCC4)cc4ccccc34)O1)N2C (stereo not drawn) [Example 6]', 634),
  ('Cc1cc2c(cc1C)C(C)(C)C1(C=Nc3c(ccc4ccccc34)O1)N2C (stereo not drawn) [Control II, reference compound]', 616),
  ('CN1c2ccccc2C(C)(C)C12C=Nc1c(c(C(=O)N3CCOCC3)cc3ccccc13)O2 (stereo not drawn) [Example 1]', 620),
  ('CC(C)CN1c2ccccc2C(C)(C)C12C=Nc1c(c(C(=O)N3CCCCC3)cc3ccccc13)O2 (stereo not drawn) [Example 7]', 622),
  ('CN1c2ccccc2C(C)(C)C12C=Nc1c(ccc3ccccc13)O2 (stereo not drawn) [Control I, reference compound]', 610);

---

experiment: Photochromic properties of lens samples (2 mm, compound in matrix I or II) exposed to UV radiation from a xenon lamp
Type: physicochemical
testContext: lens sample, Matrix I (homopolymer of DIACRYL 121)
valueType: OID (optical induced density, D∞-D0)

INSERT INTO measurements (molecule, valuetype, reading) VALUES
  ('CN1c2ccccc2C(C)(C)C12C=Nc1c(c(C(=O)N3CCCCC3)cc3ccccc13)O2 (centres unmarked) [Example 2]', 'OID (optical induced density, D∞-D0)', 0.152),
  ('Cc1ccc(NC(=O)c2cc3ccccc3c3c2OC2(C=N3)N(C)c3ccccc3C2(C)C)cc1 (centres unmarked) [Example 3]', 'OID (optical induced density, D∞-D0)', 0.707),
  ('CN1c2ccccc2C(C)(C)C12C=Nc1c(c(C(=O)N3CCc4ccccc43)cc3ccccc13)O2 (centres unmarked) [Example 4]', 'OID (optical induced density, D∞-D0)', 0.339),
  ('Cc1cc2c(cc1C)C(C)(C)C1(C=Nc3c(ccc4ccccc34)O1)N2C (centres unmarked) [Control II, reference compound]', 'OID (optical induced density, D∞-D0)', 0.280),
  ('CN1c2ccccc2C(C)(C)C12C=Nc1c(ccc3ccccc13)O2 (centres unmarked) [Control I, reference compound]', 'OID (optical induced density, D∞-D0)', 0.142);

---

experiment: Photochromic properties of lens samples (2 mm, compound in matrix I or II) exposed to UV radiation from a xenon lamp
Type: physicochemical
testContext: lens sample, Matrix II (50/50 D121 / PEGDMA 400 copolymer)
valueType: TD15 (the transmission after 15 minutes' exposure to UV) (%)

INSERT INTO assay_data (compound, resultunits, reading) VALUES
  ('CC(C)CN1c2ccccc2C(C)(C)C12C=Nc1c(c(C(=O)N3CCCCC3)cc3ccccc13)O2 (stereo not drawn)', '%', 31.8),
  ('CN1c2ccccc2C(C)(C)C12C=Nc1c(c(C(=O)N3CCOCC3)cc3ccccc13)O2 (stereo not drawn)', '%', 42.2),
  ('CN1c2ccccc2C(C)(C)C12C=Nc1c(ccc3ccccc13)O2 (stereo not drawn) [Control I, reference compound]', '%', 65.5),
  ('COc1ccc2c(c1)C(C)(C)C1(C=Nc3c(c(C(=O)N4CCCCC4)cc4ccccc34)O1)N2C (stereo not drawn)', '%', 11.3),
  ('Cc1cc2c(cc1C)C(C)(C)C1(C=Nc3c(ccc4ccccc34)O1)N2C (stereo not drawn) [Control II, reference compound]', '%', 39.8),
  ('CN1c2ccccc2C(C)(C)C12C=Nc1c(c(C(=O)N3CCc4ccccc43)cc3ccccc13)O2 (stereo not drawn)', '%', 23.9);
